assay_system: TbSir2rp1 (Trypanosoma brucei brucei)
Construct: The TbSir2rp1 gene was cloned into the pET24(+) expression plasmid (Novagen); His tag; made in house; host or cells: Escherichia coli BL21-Codon Plus (DE3)-RIL
assay_summary: biochemical
study_conditions: concentration–response curve against TbSir2rp1
Param threshold (1) applies to Hill coefficient (nH); output Satisfied when value >= threshold, Not satisfied when value < threshold.

[ask] Tell me whether Hill coefficient (nH) is at least 1 here: CCc1[nH][nH]c(=O)c1-c1cccnc1O [Fragment 3]
[reply] Satisfied

[ask] Tell me whether Hill coefficient (nH) is at least 1 here: COC(=O)Nc1nc2ccc(C(=O)c3ccccc3)cc2[nH]1 [mebendazole, reference compound]
[reply] Satisfied

[ask] Tell me whether Hill coefficient (nH) is at least 1 here: CN(C)c1ccc(/C=N/c2nnc(-c3ccccc3)o2)cc1 [Fragment 4]
[reply] Satisfied

[ask] Tell me whether Hill coefficient (nH) is at least 1 here: Sc1nc2ccccc2s1 [Fragment 1.3]
[reply] Satisfied

[ask] Tell me whether Hill coefficient (nH) is at least 1 here: Nc1ccc(C(=O)c2ccccc2)cc1 [Fragment 1.2]
[reply] Not satisfied

====

assay_system: TbSir2rp1 (Trypanosoma brucei brucei)
Construct: The TbSir2rp1 gene was cloned into the pET24(+) expression plasmid (Novagen); His tag; made in house; host or cells: Escherichia coli BL21-Codon Plus (DE3)-RIL
assay_summary: biochemical
study_conditions: TbSir2rp1; enzyme 1 μM, NAD+ 100 μM, acetylated peptide 50 μM, 37 °C, 2 h; read-out: IC50
measured_metric: IC50

[ask] Need IC50, item COC(=O)Nc1nc2ccc(C(=O)c3ccccc3)cc2[nH]1 [mebendazole, reference compound]
[reply] 121 µM

[ask] Need IC50, item Nc1ccc(Nc2ccccc2)cc1 [Fragment 1.5]
[reply] > 500 µM

[ask] Need IC50, item Cc1c(O)c2ccccc2c2nc(N)sc12 [Fragment 1]
[reply] 17.8 µM

[ask] Need IC50, item Nc1ccc(C(=O)c2ccccc2)cc1 [Fragment 1.2]
[reply] 80.9 µM

[ask] Need IC50, item CN(C)c1ccc(/C=N/c2nnc(-c3ccccc3)o2)cc1 [Fragment 4]
[reply] 94.4 µM

====

assay_system: TbSir2rp1 (Trypanosoma brucei brucei)
Construct: The TbSir2rp1 gene was cloned into the pET24(+) expression plasmid (Novagen); His tag; made in house; host or cells: Escherichia coli BL21-Codon Plus (DE3)-RIL
Sequence (Q57V41 1-351): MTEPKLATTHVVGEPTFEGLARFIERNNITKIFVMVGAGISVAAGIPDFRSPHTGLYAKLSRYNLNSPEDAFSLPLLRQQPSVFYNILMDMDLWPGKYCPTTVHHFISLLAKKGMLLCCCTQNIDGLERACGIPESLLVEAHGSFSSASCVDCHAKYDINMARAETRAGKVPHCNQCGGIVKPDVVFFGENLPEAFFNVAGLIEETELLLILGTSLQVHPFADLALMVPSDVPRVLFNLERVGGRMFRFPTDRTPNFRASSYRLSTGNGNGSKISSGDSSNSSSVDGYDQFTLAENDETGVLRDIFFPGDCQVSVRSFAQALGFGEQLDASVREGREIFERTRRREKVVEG
assay_summary: biochemical
study_conditions: read-out: % Inhibition TbSir2rp1, Table S2, complete fragment library, single concentration of 500 μM
Param threshold (40%) applies to inhibition at 500 µM; output Condition met when value >= threshold, Condition not met when value < threshold.

[ask] Tell me whether inhibition at 500 µM is at least 40% here: NC(=O)c1ncn([C@@H]2O[C@H](CO)[C@@H](O)[C@H]2O)n1
[reply] Condition not met

[ask] Tell me whether inhibition at 500 µM is at least 40% here: CC(C)[C@@H]1CC[C@@H](C)CC1O (some centres unmarked) [OC1[C@H](C(C)C)CC[C@@H](C)C1]
[reply] Condition not met

[ask] Tell me whether inhibition at 500 µM is at least 40% here: Cc1ccc(S(=O)(=O)n2ncc3ccccc32)cc1 [CC1=CC=C(S(N2N=CC3=C2C=CC=C3)(=O)=O)C=C1]
[reply] Condition not met

[ask] Tell me whether inhibition at 500 µM is at least 40% here: Cc1ccc(S(=O)(=O)n2cccc2)cc1 [O=S(N1C=CC=C1)(C2=CC=C(C)C=C2)=O]
[reply] Condition not met

[ask] Tell me whether inhibition at 500 µM is at least 40% here: CCc1[nH][nH]c(=O)c1-c1cccnc1O [Fragment 3]
[reply] Condition met

[ask] Tell me whether inhibition at 500 µM is at least 40% here: C1CN2CCN1CC2 [N1(CC2)CCN2CC1]
[reply] Condition not met

[ask] Tell me whether inhibition at 500 µM is at least 40% here: C(=N\c1nncs1)/c1ccc(Sc2ccccc2)cc1
[reply] Condition not met

[ask] Tell me whether inhibition at 500 µM is at least 40% here: CCOc1ccc(NC(C)=O)cc1 [CC(NC1=CC=C(OCC)C=C1)=O]
[reply] Condition not met

[ask] Tell me whether inhibition at 500 µM is at least 40% here: O=C1CCSc2nc(-c3ccccc3)nn21 [O=C1CCSC2=NC(C3=CC=CC=C3)=NN21]
[reply] Condition not met

[ask] Tell me whether inhibition at 500 µM is at least 40% here: CCOC1NN=C(c2ccccc2)N1 (centres unmarked) [CCOC1NC(C2=CC=CC=C2)=NN1]
[reply] Condition not met

[ask] Tell me whether inhibition at 500 µM is at least 40% here: O=C1C(O)=C(Nc2ccccc2)C(=O)c2ccccc21 [Fragment 13]
[reply] Condition met

[ask] Tell me whether inhibition at 500 µM is at least 40% here: O=C(O)c1ccccc1O [O=C(O)C1=CC=CC=C1O]
[reply] Condition not met

[ask] Tell me whether inhibition at 500 µM is at least 40% here: Nc1ccc(S(=O)(=O)c2ccc(N)cc2)cc1 [NC1=CC=C(S(C2=CC=C(N)C=C2)(=O)=O)C=C1]
[reply] Condition met

[ask] Tell me whether inhibition at 500 µM is at least 40% here: CCOC(=O)c1c(C)oc2c1ccc[n+]2[O-] [CC1=C(C(OCC)=O)C2=C(O1)[N+]([O-])=CC=C2]
[reply] Condition not met

[ask] Tell me whether inhibition at 500 µM is at least 40% here: O=C1Cc2cnccc2CN1 [Fragment 8]
[reply] Condition met

[ask] Tell me whether inhibition at 500 µM is at least 40% here: COC1=CC(=O)c2ccccc2C1=O [O=C(C1=C2C=CC=C1)C(OC)=CC2=O]
[reply] Condition met

[ask] Tell me whether inhibition at 500 µM is at least 40% here: CNC(=O)c1c(C(C)C)oc2nc(N3CCCC3)ccc12 [O=C(NC)C1=C(C(C)C)OC2=C1C=CC(N3CCCC3)=N2]
[reply] Condition met

[ask] Tell me whether inhibition at 500 µM is at least 40% here: O=c1[nH]nc(-c2ccccc2)[nH]1 [O=C1NC(C2=CC=CC=C2)=NN1]
[reply] Condition not met

====

assay_system: TbSir2rp1 (Trypanosoma brucei brucei)
Construct: The TbSir2rp1 gene was cloned into the pET24(+) expression plasmid (Novagen); His tag; made in house; host or cells: Escherichia coli BL21-Codon Plus (DE3)-RIL
assay_summary: biochemical
study_conditions: read-out: % Inhibition TbSir2rp1, Table S2, complete fragment library, single concentration of 500 μM
measured_metric: inhibition at 500 µM (%)
Number in %, nothing else.

[ask] Need inhibition at 500 µM, item COc1cc(C)c(NC(C)=O)cn1
[reply] 1.6

[ask] Need inhibition at 500 µM, item O=c1ccc2ccccc2[nH]1
[reply] 60

[ask] Need inhibition at 500 µM, item N[C@@H](Cc1ccc(O)c(O)c1)C(=O)O [O=C(O)[C@@H](N)CC1=CC=C(O)C(O)=C1]
[reply] -4

[ask] Need inhibition at 500 µM, item Cc1c(O)c2ccccc2c2nc(N)sc12
[reply] 99

[ask] Need inhibition at 500 µM, item CN(C)c1ccc(/C=N/c2nnc(-c3ccccc3)o2)cc1
[reply] 78

[ask] Need inhibition at 500 µM, item NC(=O)N1c2ccccc2CC(=O)c2ccccc21
[reply] 0.85

[ask] Need inhibition at 500 µM, item O=C(/C=C/c1ccc(Cl)cc1)c1cccs1
[reply] 32

[ask] Need inhibition at 500 µM, item O=S(=O)(c1ccc(Cl)cc1)c1ccc(Cl)cc1 [ClC1=CC=C(S(C2=CC=C(Cl)C=C2)(=O)=O)C=C1]
[reply] 44

[ask] Need inhibition at 500 µM, item Nc1ccc(S(N)(=O)=O)cc1
[reply] -4.7

[ask] Need inhibition at 500 µM, item CCOC(=O)c1ccc(N)cc1
[reply] 12

[ask] Need inhibition at 500 µM, item CS(=O)(=O)Nc1cccc(-c2nc3ccccc3[nH]2)c1
[reply] -0.8

[ask] Need inhibition at 500 µM, item Cc1ccc(S(=O)(=O)N/N=C/c2cccs2)cc1
[reply] 84

[ask] Need inhibition at 500 µM, item CN[C@@H](C)[C@H](O)c1ccccc1 [C[C@H](NC)[C@@H](C1=CC=CC=C1)O]
[reply] 23

[ask] Need inhibition at 500 µM, item CC(=O)Nc1ccccc1
[reply] 7.7

[ask] Need inhibition at 500 µM, item O=c1cc(-c2ccccc2)c2c(O)cc(O)cc2o1
[reply] 17

[ask] Need inhibition at 500 µM, item NC(=O)N1c2ccccc2C=Cc2ccccc21
[reply] 2.1

[ask] Need inhibition at 500 µM, item CC(C)(Oc1ccc(C2CC2(Cl)Cl)cc1)C(=O)O (stereo not shown)
[reply] 4.9

[ask] Need inhibition at 500 µM, item Sc1nnc(Cc2ccccc2)s1
[reply] 9.4

[ask] Need inhibition at 500 µM, item CCOC(=O)c1c(C)oc2ncccc12
[reply] -29
